Reference source: ChEMBL document CHEMBL3397020

Biological target: Tyrosine-protein phosphatase non-receptor type 5 (Homo sapiens)
Sequence (P54829 whole entry): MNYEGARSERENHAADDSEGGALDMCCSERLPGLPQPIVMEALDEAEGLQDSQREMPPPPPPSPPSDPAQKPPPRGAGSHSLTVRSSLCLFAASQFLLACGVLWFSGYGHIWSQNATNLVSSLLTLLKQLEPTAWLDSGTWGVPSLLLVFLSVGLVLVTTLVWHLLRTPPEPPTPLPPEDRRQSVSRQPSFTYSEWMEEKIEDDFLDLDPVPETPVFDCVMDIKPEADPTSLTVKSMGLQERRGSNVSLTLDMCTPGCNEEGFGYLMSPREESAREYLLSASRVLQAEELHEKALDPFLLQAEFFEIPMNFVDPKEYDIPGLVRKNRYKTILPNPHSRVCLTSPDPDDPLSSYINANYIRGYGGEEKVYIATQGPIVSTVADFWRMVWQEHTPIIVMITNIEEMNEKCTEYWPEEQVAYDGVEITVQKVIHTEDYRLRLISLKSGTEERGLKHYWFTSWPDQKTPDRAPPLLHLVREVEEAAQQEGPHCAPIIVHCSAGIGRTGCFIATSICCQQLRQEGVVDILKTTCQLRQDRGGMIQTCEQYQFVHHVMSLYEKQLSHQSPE
Assay: Inhibition of STEP (unknown origin) pre-incubated for 10 mins before addition of p-nitrophenyl phosphate substrate in presence of 1 mM GSH
Measurement type: pIC50
// pIC50 is dimensionless: -log10 of concentration (M)

# query: pIC50 of entry O=C(Nc1cc(C(F)(F)F)cc2c1SSSSS2)C(F)(F)F
4.82
